# test: Volume of distribution in iv dosed acute myeloid leukemia patient
# Type: ADME, organism-based
# runConditions: human, in vivo
reportedMetric: Vd (L)
# value in L; strip the unit string

Value lookup for Vd; key = O=C1CCC(N2Cc3cc(CNC(=O)C(F)(F)c4ccc(Cl)cc4)ccc3C2=O)C(=O)N1 (stereo unspecified)
61.7

----------
# test: Clearance in CD-IGS rat at 2 mg/kg, iv administered as bolus dose
# Type: ADME, organism-based
# runConditions: in vivo
reportedMetric: clearance (mL/min/kg)
# value in mL/min/kg; strip the unit string

Value lookup for clearance; key = O=C1CCC(N2Cc3cc(CNC(=O)C(F)(F)c4ccc(Cl)cc4)ccc3C2=O)C(=O)N1 (stereo unspecified)
28.3

The measurements presented in this section are drawn from ChEMBL document CHEMBL4706692.
